- target system: T1, COPB2_(1–304), N-terminal WD repeat of COPB2 (S. cerevisiae, UniProt P41811 1-304)
- T1 chain: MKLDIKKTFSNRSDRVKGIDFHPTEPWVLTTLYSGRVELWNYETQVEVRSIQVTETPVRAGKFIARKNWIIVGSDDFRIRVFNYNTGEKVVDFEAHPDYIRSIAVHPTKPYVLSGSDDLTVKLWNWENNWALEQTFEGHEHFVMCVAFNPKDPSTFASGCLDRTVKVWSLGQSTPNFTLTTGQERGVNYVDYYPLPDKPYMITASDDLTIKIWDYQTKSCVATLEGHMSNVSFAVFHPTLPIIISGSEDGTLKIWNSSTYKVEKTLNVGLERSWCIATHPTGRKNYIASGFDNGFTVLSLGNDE
- procedure summary: ITC
outcome measure: Kd (µM)

a. PVRASRNKRPTFLAIKKP [EBP peptide K253A]
b. PVRASRNKRPTFLKIKAP [EBP peptide K256A]
Of the two listed items, a and b , which carries the larger Kd figure? Selection: enter the item's label.
a
(a: 47.2 µM, b: 6 µM)
